# viability per entry
# assay_notes: viability of HCT116 without oncogenic beta-catenin – human colon tumor cells, pilot screen (AID 823);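 also: 0% = wells killed by 20 µM Hyamine and 100% = untreated DMSO cell wells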
# applied_conditions: HCT116 beta-catenin knockout viability, CellTiter-Glo, 60 h; at 10 µM; active compounds read low
Records with an inconclusive call do not appear.
Hi! Could you send only the number? It should be in %, unit omitted.

Below, each entry is followed by its recorded viability result.
compound: CCC1CCCCN1C(=O)CSc1nnc(-c2ccc(Cl)cc2)o1 (centres undefined)
viability, %: 87
//
compound: COc1ccc(-c2cc(C(F)(F)F)nc(S(C)(=O)=O)n2)cc1OC
viability, %: 14.5
//
compound: Cc1nnc(NC(=O)C(C)Sc2nncn2C)s1 (centres undefined)
viability, %: 107
//
compound: CCOC(=O)Nc1ccc2c(c1)N(C(=O)N(C)C)c1ccccc1CC2
viability, %: 96.8

What value of measured viability is listed for CCOC(=O)c1[nH]c(C)c(C(=O)OCC)c1C ? 105

Here is the next compound: CC(C)(C)NC(=O)Cn1c(=O)oc2ccc(Cl)cc21 106

Here is the next compound: C(=N\c1c(-c2ccccc2)nc2n1CCS2)/c1ccccc1 84.8

Here is the next compound: COc1ccc(C(=O)CCC(=O)O)cc1 98.1

Here is the next compound: Cc1noc(/C=C/N(C)C)c1S(=O)(=O)N1CCc2ccccc21 84.4

Here is the next compound: COc1cc(C(=O)NCCc2cn3ccc(C)cc3n2)cc(OC)c1OC 96.5

Here is the next compound: COc1ccccc1-n1c(=O)[nH]c2c(C(N)=O)nc(-c3cccnc3)nc21 72.9

Here is the next compound: O=C(Cc1cccs1)Nc1ccccc1NC(=O)Cc1cccs1 92

Here is the next compound: Cn1c(=NC(=O)C2CC2)sc2cc(F)cc(F)c21 91.3

Here is the next compound: CCOC(=O)/C=C1\CC(=O)Nc2nonc2N1 97.5

Here is the next compound: COc1ccc(CNC(=O)Cn2cc3c(n2)CCCCC3)cc1 102

Here is the next compound: COc1ccc(Nc2oc(-c3ccccc3Cl)nc2C#N)cc1 6.01

Here is the next compound: CCOC(=O)c1cccc(NC2c3ccccc3C(=O)N2Cc2ccco2)c1 (centres undefined) 64.7

Here is the next compound: CCSc1nc(O)c(CC)c(=O)n1C(C)CC (centres undefined) 98.6

====

# inhibition per entry
# assay_notes: yeast transport mutant growth inhibition pilot in 384-well plates, post-Golgi transport modulator project (AID 636)
# applied_conditions: absorbance 615 nm, about 18 h, active compounds read high
Hi! Could you send only the number? It should be in %, unit omitted.

Below, each entry is followed by its recorded inhibition result.
compound: Oc1ccc2ccccc2c1CN1CCN(c2ccccc2F)CC1
recorded_result: -3.47
//
compound: O=C(Nc1ccc2c(c1)OCO2)c1ccc(CN2CCOCC2)cc1
recorded_result: -7.07
//
compound: CCCCCn1c(CCNC(=O)CCC)nc2ccccc21
recorded_result: -4.67
//
compound: CCCCCCn1c(SCC(=O)OC)nc2c1c(=O)[nH]c(=O)n2C
recorded_result: -4.8
//
compound: COc1ccccc1CNC(=O)C1CCC(CNc2c(N3CCOCC3)c(=O)c2=O)CC1 (centres undefined)
recorded_result: 1.03

What value of measured inhibition is listed for Cn1cnc2cc(NC(=O)c3ccc(Cl)cc3)ccc21 ? -4

Here is the next compound: COc1cccc(-c2nc3n(n2)C(c2ccccc2Cl)C(C(N)=O)=C(C)N3)c1 (centres undefined) -0.8

Here is the next compound: COc1ccc(N(CC(=O)Nc2ccc3c(c2)OCO3)S(=O)(=O)c2c(C)nn(C)c2C)cc1 -0.38

====

# assay_notes: RAM signaling pathway blockade in yeast – S. cerevisiae, Pdr1DBD-CYC8 efflux-inhibited sensitized strain, primary screen (AID 1298);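 also: 0% = DMSO untreated cells without growth and 100% = 10 µM 1-NA-PP1 full growth; higher means more yeast growth rescued from 5-FOA killing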
# applied_conditions: S. cerevisiae cbk1-as DSE1-URA3 strain, 5-FOA growth OD615, 2 d; at 50 µM; active compounds read high
# RAM network inhibition per entry
Hi! Could you send only the number? It should be in %, unit omitted.

molecule: COc1ccccc1-c1nnc(SCC(=O)NC2CCCCC2)o1
units_label: %
recorded_result: 3.73
--
molecule: CCOc1ccc(-c2nnc(-c3ccco3)o2)cc1
units_label: %
recorded_result: 2.38
--
molecule: COc1cc(C2C(C(=O)Nc3ccc(F)cc3)=C(C)Nc3nc(CCCO)nn32)cc(OC)c1OC (stereo unspecified)
units_label: %
recorded_result: 1.42
--
molecule: CCCc1cc(C(=O)Nc2ccccc2SC)no1
units_label: %
recorded_result: 1.56
--
molecule: C=CCn1c(=O)c2c(nc3n2CC(C)CN3c2cccc(OC)c2)n(C)c1=O (stereo unspecified)
units_label: %
recorded_result: 5.52

What value of measured RAM network inhibition is listed for Cn1cc(S(=O)(=O)Nc2ccc(F)cc2F)c(=O)n(C)c1=O ? 1.28

Here is the next molecule: CCOCCOc1nc2c(c(=O)n(C)c(=O)n2C)n1Cc1ccc(C)cc1 2.08

Here is the next molecule: Cc1ccc(Oc2ccccc2)c(NC=O)c1 1.17

Here is the next molecule: O=C(O)c1cccc(-n2cnnn2)c1 4.03

Here is the next molecule: CCC(=O)N1c2ccccc2NC2=C(C(=O)CC(c3ccco3)C2)C1c1ccco1 (stereo unspecified) -0.58

Here is the next molecule: O=C(CN1C(=O)NC(Cc2ccccc2)C1=O)Nc1ccccc1 (stereo unspecified) 0.35

====

# assay_notes: RAM pathway blockade in budding yeast – dse1pr::URA3 reporter, 5-FOA selection, pilot screen (AID 869);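 also: 0% = DMSO wells with no growth and 100% = 10 µM 1-NA-PP1 with full growth; RAM network block rescues cells from 5-FOA so hits raise OD615 growth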
# applied_conditions: S. cerevisiae dse1pr::URA3 5-FOA growth, OD615, 2 d; at 10 µM; active compounds read high; strain carries analog-sensitive mutant Cbk1 kinase
# inhibition per entry
Hi! Could you send only the number? It should be in %, unit omitted.

Below, each entry is followed by its recorded inhibition result.
compound: Cc1ccc(N2C(=O)c3ccc(C(=O)N4CCN(c5ccccc5F)CC4)cc3C2=O)cc1
reported_metric: inhibition
units_label: %
recorded_result: 1.33
//
compound: CC1CCc2nn(CC(=O)NCCN3CCOCC3)cc2C1 (stereo unspecified)
reported_metric: inhibition
units_label: %
recorded_result: 0.965
//
compound: FC(F)(F)c1cc(-c2ccco2)nc(NCc2ccco2)n1
reported_metric: inhibition
units_label: %
recorded_result: 1.14
//
compound: Cc1noc(C)c1S(=O)(=O)N(CC(=O)N1CCc2ccccc21)c1ccc(C(C)C)cc1
reported_metric: inhibition
units_label: %
recorded_result: 1.3
//
compound: Clc1cccc(Nc2ncnc3c2cnn3-c2ccccc2)c1
reported_metric: inhibition
units_label: %
recorded_result: 2.04

Field: next compound
What value of measured inhibition is listed for CC1Cc2ccccc2C(=O)N1 (stereo unspecified) ? 0.36

====

# assay_notes: HUVEC growth inhibition – cell-based, human, primary screen (AID 575);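 also: 100% = median of untreated cell wells with 0.1% DMSO on each plate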
# applied_conditions: HUVEC proliferation, CellTiter-Glo luminescence, 72 h; at 10 µM; active compounds read low
Calls of active or inactive are those of the source.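 Rule for the calls: active = viability at or below 30% in both replicate assays; inconclusive = viability at or below 30% in just one of the two assays; inactive = the rest.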
# viability per entry

Below, each entry is followed by its recorded viability result.
compound: CC(=O)N(c1ccc(Br)cc1)C1C=CS(=O)(=O)C1 (stereo not drawn)
reported_metric: viability
recorded_result: 87.9% (inactive)
//
compound: CN(CCNS(=O)(=O)c1ccc2c(c1)oc(=O)n2C)Cc1ccccc1
reported_metric: viability
recorded_result: 90.7% (inactive)
//
compound: CC(C)c1nnc(NC(=O)Cc2cccs2)s1
reported_metric: viability
recorded_result: 106% (inactive)
//
compound: CCCc1cc(C(=O)Nc2sc(C)c(C)c2C(=O)OCC)no1
reported_metric: viability
recorded_result: 85.8% (inactive)

What value of measured viability is listed for COc1cccc2c(=O)c3c(cnn3C)n(C)c12 ? 84.9% (inactive)

Here is the next compound: C#CCOC(=O)C1C2C=CC(C2)C1C(=O)O (stereo not drawn) 109% (inactive)

Here is the next compound: COCCn1cc(C(=O)c2ccccc2OCC(=O)Nc2cc(C)on2)cc(C#N)c1=O 89% (inactive)

Here is the next compound: COc1ccc(-n2ncc3c(N4CCC(C)CC4)ncnc32)cc1 56.2% (inactive)

Here is the next compound: N#Cc1cc2c(nc1SCC(=O)N1CCCCC1)CCCC2 88.3% (inactive)

Here is the next compound: COc1ccc(N(C)C(=O)CCS(=O)(=O)c2cccc3nonc23)cc1 94.9% (inactive)

Here is the next compound: Cc1cc(NC(=O)c2cccc(S(=O)(=O)N3CC(c4ccccc4)CC3=O)c2)no1 (stereo not drawn) 98.8% (inactive)

Here is the next compound: CC(=O)N(C(C)=O)c1ncc2c([nH]c3ccccc32)c1C#N 53.4% (inactive)

Here is the next compound: CCOCCOc1nc2c(c(=O)n(C)c(=O)n2C)n1Cc1ccc(C)cc1 94.5% (inactive)

Here is the next compound: CCOc1ccc(NC(=O)CCN2CCN(c3ccccc3)CC2)cc1 95.3% (inactive)

Here is the next compound: Cc1ccc(C)c2[nH]c(=O)c(CCNC(=O)CC(C)(C)C)cc12 103% (inactive)

Here is the next compound: CCN1CCN(C(=O)C2CCN(C(=O)c3cc4sccc4n3CC)CC2)CC1 115% (inactive)

Here is the next compound: Cn1nnnc1SCC(=O)Nc1ccccc1-c1ccccc1 99% (inactive)

Here is the next compound: Cc1ccnc(NC(=O)C2CCCN(S(=O)(=O)c3cnc[nH]3)C2)c1 (stereo not drawn) 94.7% (inactive)

Here is the next compound: COc1ccc(N(CC(=O)O)S(=O)(=O)c2ccc(OC)c(OC)c2)cc1 108% (inactive)
